Provenance of the data: paper PMC4336329

# TARGET: human ether-à-go-go-related gene (hERG) potassium channel (human, UniProt Q12809);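 note: peak tail current of the secondary pulse compared with the same well before compound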
# Sequence (Q12809 whole entry, looked up): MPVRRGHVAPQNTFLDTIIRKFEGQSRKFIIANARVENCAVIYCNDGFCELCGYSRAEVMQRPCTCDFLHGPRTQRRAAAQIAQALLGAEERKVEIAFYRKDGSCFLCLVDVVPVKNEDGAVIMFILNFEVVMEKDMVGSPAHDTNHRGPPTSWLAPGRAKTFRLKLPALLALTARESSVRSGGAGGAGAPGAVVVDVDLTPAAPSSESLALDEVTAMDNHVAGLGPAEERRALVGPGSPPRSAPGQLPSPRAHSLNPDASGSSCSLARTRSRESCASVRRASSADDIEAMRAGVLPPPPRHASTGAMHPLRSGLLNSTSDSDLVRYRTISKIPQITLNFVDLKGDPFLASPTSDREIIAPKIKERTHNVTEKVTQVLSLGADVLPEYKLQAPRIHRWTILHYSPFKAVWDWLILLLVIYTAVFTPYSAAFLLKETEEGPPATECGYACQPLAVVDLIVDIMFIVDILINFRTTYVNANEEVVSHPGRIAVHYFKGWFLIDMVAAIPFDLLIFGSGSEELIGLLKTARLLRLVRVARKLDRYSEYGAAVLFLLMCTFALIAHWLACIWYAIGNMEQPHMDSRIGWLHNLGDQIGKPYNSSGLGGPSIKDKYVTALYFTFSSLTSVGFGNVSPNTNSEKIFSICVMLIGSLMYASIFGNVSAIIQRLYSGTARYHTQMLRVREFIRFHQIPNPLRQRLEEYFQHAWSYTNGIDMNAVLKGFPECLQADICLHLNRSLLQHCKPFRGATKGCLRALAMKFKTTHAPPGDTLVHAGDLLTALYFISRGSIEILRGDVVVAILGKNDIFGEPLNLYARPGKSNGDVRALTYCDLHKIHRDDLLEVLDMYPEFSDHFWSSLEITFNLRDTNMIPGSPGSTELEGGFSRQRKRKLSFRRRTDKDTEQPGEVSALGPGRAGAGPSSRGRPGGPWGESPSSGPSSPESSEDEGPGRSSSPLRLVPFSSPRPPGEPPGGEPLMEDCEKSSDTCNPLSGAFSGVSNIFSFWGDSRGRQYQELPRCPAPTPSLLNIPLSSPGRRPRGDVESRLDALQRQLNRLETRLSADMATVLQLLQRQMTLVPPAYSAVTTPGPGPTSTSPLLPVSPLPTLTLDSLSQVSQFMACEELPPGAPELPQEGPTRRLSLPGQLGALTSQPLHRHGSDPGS
# METHOD: primary screen, population patch clamp on CHO cells stably expressing hERG; higher = less effect of the substance
# Protocol: Briefly, Chinese hamster ovary (CHO) cells stably expressing the hERG channel were dislodged from tissue culture flasks and dispensed into PPC plates. […] During the recording, background leak currents were estimated by a 100 ms step to -80 mV from an initial holding potential of -70 mV and subtracted from the subsequent current measurement. The campaign was conducted in two phases using slight differences in recording protocol. […]
Among all 310,000 compounds or so, about 14,000 (4.5%) showed an effect of 50% or more. Effects have a minus sign here. This excerpt belongs to a sample that is enriched for strong results.
OBSERVATION_TYPE: hERG current change (%, negative = inhibition) at 10uM (%)
Number in %, nothing else.

1) CC1CCCC(NC(=O)CCNC(=O)c2ccc(Br)cc2)C1C (stereo not drawn)    -0.231
2) O=C(CCC(=O)N1CCOc2ccccc21)N1CCOCC1    -5.85
3) Cn1c(-c2ccc(Br)cc2)cnc1NCc1ccc(C#N)cc1.O=C(O)C(=O)O    -76.6

input: State the recorded hERG current change (%, negative = inhibition) at 10uM for this entry: CNc1ncc(C(=O)c2ccccc2)s1
output: -1.56

input: Request the reported hERG current change (%, negative = inhibition) at 10uM associated with CCN(CC(=O)Nc1c(F)cccc1F)C(=O)c1ccc2ccccc2n1
output: -19.6

input: Entry under review: CCOc1ccc(S(=O)(=O)Nc2ccc3c(c2)OCO3)cc1 . Reported hERG current change (%, negative = inhibition) at 10uM?
output: -14.9

input: Item under review: Cn1c(-c2ccc(F)cc2)cnc1NCc1ccc(C#N)cc1 . Reported hERG current change (%, negative = inhibition) at 10uM?
output: -73.7

input: Given the compound COc1ccc(N2CCN(C(=O)CCC(=O)N3CCOc4ccc(C)cc43)CC2)cc1 , what is its reported hERG current change (%, negative = inhibition) at 10uM?
output: -42.7

input: Suppose we examine the compound COc1ccc(CCNC(=O)CCC(=O)N2CCOc3ccc(Cl)cc32)cc1OC ; what hERG current change (%, negative = inhibition) at 10uM value has been reported?
output: -20.2

input: Entry under review: Cc1cc(Nc2c(C)cccc2C)n2nc(C)nc2n1 . Reported hERG current change (%, negative = inhibition) at 10uM?
output: 3.66

input: Quick check: hERG current change (%, negative = inhibition) at 10uM of CCC(=NCCN1CCOCC1)c1c(O)n(C2CCCCC2)c(=O)[nH]c1=O ?
output: -6.76

----------
# TARGET: human ether-à-go-go-related gene (hERG) potassium channel (human);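 note: peak tail current of the secondary pulse compared with the same well before compound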
# METHOD: primary screen, population patch clamp on CHO cells stably expressing hERG; higher = less effect of the substance
# Method: Briefly, Chinese hamster ovary (CHO) cells stably expressing the hERG channel were dislodged from tissue culture flasks and dispensed into PPC plates. […] During the recording, background leak currents were estimated by a 100 ms step to -80 mV from an initial holding potential of -70 mV and subtracted from the subsequent current measurement. The campaign was conducted in two phases using slight differences in recording protocol. […]
The campaign covered roughly 310,000 compounds. About 14,000 (4.5%) showed an effect of 50% or more. Effects have a minus sign here. What follows is part of a selection rich in strong results, with near analogues and random picks from the rest.
// values below are reported hERG current change (%, negative = inhibition) at 10uM
Response body: numeric value in %, unit text excluded.

Answered cases to consult:
1) CCn1ccnc1CN1CCCC(C(=O)c2cccc(C(F)(F)F)c2)C1 (stereo not drawn)    -31.1
2) O=C(/C=C/c1ccc(S(=O)(=O)N2CCOCC2)cc1)N1CCN(c2ccc(F)cc2)CC1    -25.6
3) Cc1ccc(S(=O)(=O)N(C)C)cc1-n1c(SCC(=O)Nc2ccc(F)cc2Cl)nc2ccccc2c1=O    0.00438
4) O=C(c1ccc(C(F)(F)F)cc1)C1CCCN(Cc2cccn2-c2ncccn2)C1 (stereo not drawn)    -80.3
5) O=C(/C=C/c1cccs1)N1CCN(c2ccccc2)CC1    1.88
6) O=C(O)/C=C/c1ccc2ccccc2n1    2.35
7) O=C(c1cccc(C(F)(F)F)c1)C1CCCN(C(=O)CCc2cnccn2)C1 (stereo not drawn)    -15.6
8) O=C(/C=C/c1ccc2ccccc2n1)N1CCN(S(=O)(=O)c2ccccc2F)CC1    -15.9

Below: the item to evaluate.
input: Item COc1ccc(CC(=O)NC(c2ccccc2)c2ccc(C)cc2)c(OC)c1 (stereo not drawn) has what recorded hERG current change (%, negative = inhibition) at 10uM?
output: 11.3
